# Ki measurements, system: UniProt P23975
# Sequence (P23975 whole entry): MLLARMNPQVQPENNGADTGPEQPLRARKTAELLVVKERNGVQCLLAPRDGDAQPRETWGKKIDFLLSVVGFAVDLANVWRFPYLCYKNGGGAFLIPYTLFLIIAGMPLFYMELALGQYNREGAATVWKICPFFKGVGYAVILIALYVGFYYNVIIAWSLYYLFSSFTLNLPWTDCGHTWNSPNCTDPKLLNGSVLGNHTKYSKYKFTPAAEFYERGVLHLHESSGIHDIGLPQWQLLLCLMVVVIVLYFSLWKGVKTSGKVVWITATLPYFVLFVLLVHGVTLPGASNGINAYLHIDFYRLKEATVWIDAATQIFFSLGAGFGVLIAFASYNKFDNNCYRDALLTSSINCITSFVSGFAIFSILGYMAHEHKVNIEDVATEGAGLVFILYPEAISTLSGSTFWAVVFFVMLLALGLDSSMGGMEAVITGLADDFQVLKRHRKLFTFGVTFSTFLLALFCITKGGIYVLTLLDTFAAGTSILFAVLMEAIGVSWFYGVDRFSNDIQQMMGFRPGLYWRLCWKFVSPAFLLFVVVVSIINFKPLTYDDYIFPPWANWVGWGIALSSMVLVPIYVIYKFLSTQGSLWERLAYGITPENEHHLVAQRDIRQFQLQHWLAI

[
  {
    "COMPOUND": "CCOc1ccc(-n2nc3c(N(C)Cc4ncccn4)nnc(C)c3c2C)c(F)c1",
    "ENDPOINT RESULT": "> 1000 nM"
  },
  {
    "COMPOUND": "CCOc1ccc(-n2nc3c(N(C)Cc4ccccc4)nnc(C)c3c2C)c(F)c1",
    "ENDPOINT RESULT": "< 100 nM"
  },
  {
    "COMPOUND": "CCOc1ccc(-n2nc3c(N(C)Cc4ncccc4F)nnc(C)c3c2C)c(F)c1",
    "ENDPOINT RESULT": "100 to 500 nM"
  },
  {
    "COMPOUND": "CCOc1ccc(-n2nc3c(N(C)CC[C@@H](O)c4ccccc4)nnc(C)c3c2C)c(F)c1",
    "ENDPOINT RESULT": "100 to 500 nM"
  }
]

*Q* Field: Ki (UniProt P23975). Entry: `CCOc1ccc(-n2nc3c(N(C)Cc4cccc(O)c4)nnc(C)c3c2C)c(F)c1`
*A* 100 to 500 nM

*Q* Field: Ki (UniProt P23975). Entry: `CCOc1ccc(-n2nc3c(N(C)CC[C@H](O)c4ccccc4)nnc(C)c3c2C)c(F)c1`
*A* < 100 nM

*Q* Field: Ki (UniProt P23975). Entry: `CCOc1ccc(-n2nc3c(N(C)Cc4ccccn4)nnc(C)c3c2C)c(F)c1`
*A* 500 to 1000 nM

*Q* Field: Ki (UniProt P23975). Entry: `CCOc1ccc(-n2nc3c(N(C)Cc4ccccc4CNC)nnc(C)c3c2C)c(F)c1`
*A* 100 to 500 nM

*Q* Field: Ki (UniProt P23975). Entry: `CCOc1ccc(-n2nc3c(N(C)Cc4cnccn4)nnc(C)c3c2C)c(F)c1`
*A* > 1000 nM

*Q* Field: Ki (UniProt P23975). Entry: `CCOc1ccc(-n2nc3c(N(C)Cc4ccon4)nnc(C)c3c2C)c(F)c1`
*A* > 1000 nM

*Q* Field: Ki (UniProt P23975). Entry: `Cc1nnc(N(C)Cc2ccccn2)c2nn(-c3ccc(Cl)cc3OC(F)(F)F)c(C)c12`
*A* > 1000 nM

*Q* Field: Ki (UniProt P23975). Entry: CCOc1ccc(-n2nc3c(NCCC4(c5ccccn5)CCOC5(CCCC5)C4)nnc(C)c3c2C)c(F)c1 (stereo not shown)
*A* > 1000 nM

*Q* Field: Ki (UniProt P23975). Entry: `CCOc1ccc(-n2nc3c(NCC[C@H](O)c4ccccc4)nnc(C)c3c2C)c(F)c1`
*A* 100 to 500 nM

* * *

Measured Ki accompanies every entry in the list below.
- MEASUREMENT TARGET: Human α2δ-1 subunit of Cav2.2 calcium channel (Homo sapiens)
- Sequence (P54289 25-1103): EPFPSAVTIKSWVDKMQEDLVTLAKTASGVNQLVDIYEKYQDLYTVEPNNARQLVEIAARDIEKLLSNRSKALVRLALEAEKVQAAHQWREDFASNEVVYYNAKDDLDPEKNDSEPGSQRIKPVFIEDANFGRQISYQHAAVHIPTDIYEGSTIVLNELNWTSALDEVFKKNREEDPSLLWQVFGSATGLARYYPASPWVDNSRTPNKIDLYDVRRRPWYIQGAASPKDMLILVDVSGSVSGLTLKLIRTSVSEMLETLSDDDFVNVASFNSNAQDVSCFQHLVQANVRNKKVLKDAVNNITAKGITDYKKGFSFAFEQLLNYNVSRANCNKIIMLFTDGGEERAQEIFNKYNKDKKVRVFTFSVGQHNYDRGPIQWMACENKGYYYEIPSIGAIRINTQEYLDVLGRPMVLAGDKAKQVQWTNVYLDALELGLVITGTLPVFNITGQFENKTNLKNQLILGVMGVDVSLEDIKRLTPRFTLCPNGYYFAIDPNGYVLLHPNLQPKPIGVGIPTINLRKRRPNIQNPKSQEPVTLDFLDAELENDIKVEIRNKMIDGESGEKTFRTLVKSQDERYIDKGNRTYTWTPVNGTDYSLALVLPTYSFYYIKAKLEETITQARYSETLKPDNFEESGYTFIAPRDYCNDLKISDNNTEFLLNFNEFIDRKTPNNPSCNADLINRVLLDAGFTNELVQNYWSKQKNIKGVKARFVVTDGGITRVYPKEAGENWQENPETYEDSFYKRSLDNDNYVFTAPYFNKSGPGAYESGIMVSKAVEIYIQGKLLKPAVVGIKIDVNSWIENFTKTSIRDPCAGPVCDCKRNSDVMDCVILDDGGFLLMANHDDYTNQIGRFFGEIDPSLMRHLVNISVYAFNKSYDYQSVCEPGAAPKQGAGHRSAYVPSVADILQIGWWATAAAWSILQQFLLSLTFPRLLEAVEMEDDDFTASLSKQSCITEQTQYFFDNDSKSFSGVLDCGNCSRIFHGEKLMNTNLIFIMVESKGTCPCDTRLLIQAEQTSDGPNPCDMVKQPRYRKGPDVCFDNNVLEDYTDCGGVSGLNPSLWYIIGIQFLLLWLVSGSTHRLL
- EXPERIMENTAL DETAILS: Human α2δ-1 subunit of Cav2.2 calcium channel assay, [3H]-Gabapentin binding
- PARTICULARS: human α2δ-1 enriched membranes, 15 nM [3H]-Gabapentin; Ki as class symbol
- Procedure: Human α2δ-1 Subunit of Cav2.2 Calcium Channel Assay Human α2δ-1 enriched membranes (2.5 μg) were incubated with 15 nM of radiolabeled [3H]-Gabapentin in assay buffer containing Hepes-KOH 10 mM, pH 7.4. NSB (non specific binding) was measured by adding 10 μM pregabalin. The binding of the test compound was measured at five different concentrations. […] Filter plates were dried at 60° C. for 1 hour and 30 μl of scintillation cocktail were added to each well before radioactivity reading. […]

Some solved cases for reference:
[
  {
    "COMPOUND": "CCOc1ccc(-n2nc3c(N(C)Cc4ncccc4C)nnc(C)c3c2C)c(F)c1 [Example 32]",
    "Ki": "0.1 to 0.5 µM"
  },
  {
    "COMPOUND": "CCOc1ccc(-n2nc3c(N(C)CCC(N)c4ccccc4)nnc(C)c3c2C)c(F)c1 (centres unmarked) [Example 39]",
    "Ki": "≥ 5 µM"
  },
  {
    "COMPOUND": "CCOc1ccc(-n2nc3c(N(CC)Cc4ccccn4)nnc(C)c3c2C)c(F)c1 [Example 40]",
    "Ki": "0.5 to 5 µM"
  },
  {
    "COMPOUND": "CCOc1ccc(-n2nc3c(N(C)Cc4cccnc4)nnc(C)c3c2C)c(F)c1 [Example 10]",
    "Ki": "0.1 to 0.5 µM"
  }
]

Turning now to a further record.
*Q* Quick one: Ki of CCOc1ccc(-n2nc3c(N(C)Cc4ccon4)nnc(C)c3c2C)c(F)c1 [Example 27] ?
*A* 0.5 to 5 µM
